The reported measurements were obtained from patent US7138408B2.

biological target: HIV-1 integrase (SF1) (Human immunodeficiency virus type 1 group M subtype B, UniProt P04585, C1203S/C1427S/F1286D/F1332K/W1278D); construct: 6-histidine tag with thrombin cleavage site (N, cleaved yes); made in house; host or cells: E. coli BL21 (DE3); assay: Integrase strand-transfer scintillation proximity assay; assay type: biochemical
pIC50: −log10 of the molar value.
Measurement Name: pIC50

sample_smiles=O=C(NO)c1cc2c3ccccc3n(Cc3c(F)ccc(Cl)c3F)c2cn1 measurement_name=pIC50 reported_result=5.86
sample_smiles=O=C(NO)c1cc2c3ccccc3n(Cc3ccc(F)cc3F)c2cn1 measurement_name=pIC50 reported_result=6.33
sample_smiles=O=C(NO)c1cc2c3ccccc3n(Cc3ccc(F)cc3)c2cn1 measurement_name=pIC50 reported_result=6.63
sample_smiles=O=C(NO)c1cc2c3ccccc3n(Cc3ccccc3)c2cn1 measurement_name=pIC50 reported_result=6.55
sample_smiles=O=C(NO)c1cc2c3ccccc3n(Cc3cccc(Cl)c3F)c2cn1 measurement_name=pIC50 reported_result=6.40
sample_smiles=O=C(NO)c1cc2c3ccccc3n(Cc3ccc(Cl)s3)c2cn1 measurement_name=pIC50 reported_result=6.31
sample_smiles=Nc1ccc2c(c1)c1cc(C(=O)NO)ncc1n2Cc1cccc(Cl)c1 measurement_name=pIC50 reported_result=6.15
sample_smiles=CN(O)C(=O)c1cc2c3ccccc3n(Cc3ccc(F)cc3)c2cn1 measurement_name=pIC50 reported_result=6.16
